Below, each of the sequences is paired with its reported recombinant barcode read abundance (log10) value.
assay_remarks: recombinant barcode read abundance after kanamycin selection (control-corrected) (log10(CPM+1)); higher = more efficient recombination; sequences stand for … in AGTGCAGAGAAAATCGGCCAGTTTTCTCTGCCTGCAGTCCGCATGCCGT…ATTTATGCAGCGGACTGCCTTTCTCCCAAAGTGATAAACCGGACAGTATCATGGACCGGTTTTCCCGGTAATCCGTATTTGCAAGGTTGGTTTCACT; site = the 11-nt target
measurement_type: recombinant barcode read abundance (log10)

1. AAACACACTTGGGTTCTAACCTGTTGCCTGT [AAACACACTAG_LTGcore_CT_RTGcore_AC] (site AAACACACTAG) (LTG core: CT, RTG core: AC) | 0.639
2. GAGCCCATTTGGGTTCTAACCTGTTGCCTAA [GAGCCCACTAG_LTGcore_TT_RTGcore_TT] (site GAGCCCACTAG) (LTG core: TT, RTG core: TT) | 0.178
3. GGGCGTGTTTGGGTTCTAACCTGTTGCCTAG [GGGCGTGCTAG_LTGcore_TT_RTGcore_CT] (site GGGCGTGCTAG) (LTG core: TT, RTG core: CT) | 0.0908

----------
assay_remarks: recombinant barcode read abundance after kanamycin selection (control-corrected) (log10(CPM+1)); higher = more efficient recombination; sequences stand for … in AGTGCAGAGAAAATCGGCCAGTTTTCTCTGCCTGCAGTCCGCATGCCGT…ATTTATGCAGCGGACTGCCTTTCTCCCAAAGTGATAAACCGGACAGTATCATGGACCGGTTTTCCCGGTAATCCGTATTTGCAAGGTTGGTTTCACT; site = the 11-nt target
The label depends only on recombinant barcode read abundance (log10): T if it is at least 0.1, F if it is smaller.

1. AGGCGGGACTGGGTTCTAACCTGTTGCGGAG [AGGCGGGCTCC_LTGcore_AC_RTGcore_CT] (site AGGCGGGCTCC) (LTG core: AC, RTG core: CT) | T
2. GGGAGCCCTTGGGTTCTAACCTGTTGCTGAG [GGGAGCCCTCA_LTGcore_CT_RTGcore_CT] (site GGGAGCCCTCA) (LTG core: CT, RTG core: CT) | T
3. GCGGGACCTTGGGTTCTAACCTGTTGCCTTG [GCGGGACCTAG_LTGcore_CT_RTGcore_CA] (site GCGGGACCTAG) (LTG core: CT, RTG core: CA) | T
4. AGGCGGTCTTGGGTTCTAACCTGTTGCTTGT [AGGCGGTCTAA_LTGcore_CT_RTGcore_AC] (site AGGCGGTCTAA) (LTG core: CT, RTG core: AC) | T
5. GAGTCCACTTGGGTTCTAACCTGTTGCGTGT [GAGTCCACTAC_LTGcore_CT_RTGcore_AC] (site GAGTCCACTAC) (LTG core: CT, RTG core: AC) | F
6. GGCTCCCACTGGGTTCTAACCTGTTGCGGAG [GGCTCCCCTCC_LTGcore_AC_RTGcore_CT] (site GGCTCCCCTCC) (LTG core: AC, RTG core: CT) | T
7. CGGTCCCTCTGGGTTCTAACCTGTTGCCAAG [CGGTCCCCTTG_LTGcore_TC_RTGcore_CT] (site CGGTCCCCTTG) (LTG core: TC, RTG core: CT) | T
8. GCGCGACGATGGGTTCTAACCTGTTGCTTTC [GCGCGACCTAA_LTGcore_GA_RTGcore_GA] (site GCGCGACCTAA) (LTG core: GA, RTG core: GA) | F
9. AGGCGGGCCTGGGTTCTAACCTGTTGCGGGG [AGGCGGGCTCC_LTGcore_CC_RTGcore_CC] (site AGGCGGGCTCC) (LTG core: CC, RTG core: CC) | T
10. CGCGCCCGATGGGTTCTAACCTGTTGCGGTC [CGCGCCCCTCC_LTGcore_GA_RTGcore_GA] (site CGCGCCCCTCC) (LTG core: GA, RTG core: GA) | T
11. AAACACACTTGGGTTCTAACCTGTTGCCTGG [AAACACACTAG_LTGcore_CT_RTGcore_CC] (site AAACACACTAG) (LTG core: CT, RTG core: CC) | T
12. GGGAGCCATTGGGTTCTAACCTGTTGCTGAG [GGGAGCCCTCA_LTGcore_AT_RTGcore_CT] (site GGGAGCCCTCA) (LTG core: AT, RTG core: CT) | T
13. GGTGCCCAATGGGTTCTAACCTGTTGCCGAG [GGTGCCCCTCG_LTGcore_AA_RTGcore_CT] (site GGTGCCCCTCG) (LTG core: AA, RTG core: CT) | T
14. TAGAGGGCGTGGGTTCTAACCTGTTGCGGAG [TAGAGGGCTCC_LTGcore_CG_RTGcore_CT] (site TAGAGGGCTCC) (LTG core: CG, RTG core: CT) | T
15. GCGGGACCTTGGGTTCTAACCTGTTGCCTGA [GCGGGACCTAG_LTGcore_CT_RTGcore_TC] (site GCGGGACCTAG) (LTG core: CT, RTG core: TC) | F
16. AGGCGGGCTTGGGTTCTAACCTGTTGCGGAC [AGGCGGGCTCC_LTGcore_CT_RTGcore_GT] (site AGGCGGGCTCC) (LTG core: CT, RTG core: GT) | T
17. TCGCGACATTGGGTTCTAACCTGTTGCCGAT [TCGCGACCTCG_LTGcore_AT_RTGcore_AT] (site TCGCGACCTCG) (LTG core: AT, RTG core: AT) | T
18. ATGTCCCACTGGGTTCTAACCTGTTGCTCGT [ATGTCCCCTGA_LTGcore_AC_RTGcore_AC] (site ATGTCCCCTGA) (LTG core: AC, RTG core: AC) | T
19. GAGTCCATCTGGGTTCTAACCTGTTGCGTGA [GAGTCCACTAC_LTGcore_TC_RTGcore_TC] (site GAGTCCACTAC) (LTG core: TC, RTG core: TC) | F
20. AGGCGGTGCTGGGTTCTAACCTGTTGCTTAG [AGGCGGTCTAA_LTGcore_GC_RTGcore_CT] (site AGGCGGTCTAA) (LTG core: GC, RTG core: CT) | T
21. GGGCGGACTTGGGTTCTAACCTGTTGCGGTC [GGGCGGACTCC_LTGcore_CT_RTGcore_GA] (site GGGCGGACTCC) (LTG core: CT, RTG core: GA) | T
22. TCGCGACCCTGGGTTCTAACCTGTTGCCGAG [TCGCGACCTCG_LTGcore_CC_RTGcore_CT] (site TCGCGACCTCG) (LTG core: CC, RTG core: CT) | T
